Test: qHTS assay to identify small molecule antagonists of the estrogen related receptor (ERR) signaling pathway (AID 1224819; further: nearly all actives have a fitted effect of over 50% in size)
Details: ERR reporter cell line, luciferase inhibition; series mostly up to 46.1 µM
Inconclusive results are not listed. Calls of active or inactive are those of the source. The call rests on the fitted dose curve; in most records, active means well fitted inhibition curve with a large enough effect in the repeat runs; inconclusive means weak or mixed curves; inactive means no such curve, though single readings can be large or run the other way.
Response enum: active, inactive

[Q] Could you kindly confirm the outcome this assay logged for CC(=O)[C@H]1CCC2C3CC=C4C[C@@H](OS(=O)(=O)O)CC[C@]4(C)C3CC[C@@]21C (stereo partly drawn) ?
[A] inactive

[Q] Can you look up the reported call for `CCCOC(=O)c1ccc(O)cc1` for me?
[A] inactive

[Q] Call for entry `CCCCC[C@H](CC(=O)NO)C(=O)N[C@H](C(=O)N1CCC[C@H]1CO)C(C)C` :
[A] active

[Q] # lookup: test call for `O=C(/C=C/c1ccc(O)cc1)c1ccc(O)cc1O`
[A] inactive

[Q] Lab log entry: `C=CCn1c(=O)c2c(nc(-c3ccc(S(=O)(=O)O)cc3)n2C)n(C)c1=O` — outcome as called in the assay?
[A] inactive

[Q] Record lookup: outcome of this test for Cc1nc2n(c(=O)c1CCN1CCC(c3noc4cc(F)ccc34)CC1)CCCC2O (stereo not drawn) ?
[A] inactive

[Q] What is the recorded call for this compound in the test? `N#CC(C#N)=C(N)/C(C#N)=C/c1ccc(O)cc1`
[A] inactive

[Q] Test call, this compound: `O=C(O)c1cc(=O)c2ccccc2[nH]1`
[A] inactive

[Q] Call for entry `O=C(c1ccc(Cl)cc1)N1CCN(c2ccc([N+](=O)[O-])c3ncccc23)CC1` :
[A] active

[Q] GET /call?item= `NCCCNCCCCNCCCN` returns the recorded outcome of this test.
[A] inactive

[Q] Assay outcome for `O=C1C(SCCO)=C(SCCO)C(=O)c2ccccc21` : what was it?
[A] active

[Q] Dear all, I need the recorded test outcome for C[C@H](Cc1ccccc1)Nc1ncnc2c1ncn2[C@@H]1O[C@H](CO)C(O)[C@H]1O (stereo partly drawn) , thank you.
[A] inactive

[Q] Look up the recorded call for N=c1ccn2c(n1)O[C@H]1C(O)[C@@H](CO)O[C@H]12 (stereo partly drawn) in this test.
[A] inactive

[Q] Record request — test call for `N[C@@H](Cn1ccc(=O)c(O)c1)C(=O)O`
[A] inactive

[Q] Could you check what this test reported for `O=[N+]([O-])c1cccc2cn[nH]c12` ?
[A] inactive

[Q] Look up the recorded call for `CCC(=O)N1CCN(C(=O)c2ccccc2)CC1` in this test.
[A] inactive

[Q] Recorded test call requested for `Cc1cccc(C#Cc2ccccc2)n1`
[A] inactive

[Q] Hey, what did the test say about `COc1ccc(/C=C2\COc3ccc(C)cc3C2=O)cc1O` ?
[A] inactive

[Q] Tell me the assay call for `N#C/C(=C\c1ccc(O)c(O)c1)C(=O)NCCCNC(=O)/C(C#N)=C/c1ccc(O)c(O)c1` please.
[A] inactive

[Q] What is the recorded call for this compound in the test? `CN(CC[C@@H](Oc1ccc(C(F)(F)F)cc1)c1ccccc1)CC(=O)O`
[A] inactive

[Q] For `O=C(OCCN1CCOCC1)C1(c2ccccc2)CCCCC1` , what call appears in the results of this test?
[A] inactive

[Q] How was `O=C(O)CCC/C=C\C[C@@H]1[C@@H](/C=C/[C@H](O)C2Cc3ccccc3C2)[C@@H](F)C[C@@H]1O` classified in this test?
[A] inactive

[Q] Hey, what did the test say about `O=C1c2ccccc2-c2n[nH]c3cccc1c23` ?
[A] active

Data provenance: PubChem BioAssay (Tox21)
